# System: SNB-19 CNS
# PROTOCOL_TEXT: NCI-60 one-dose screen, 48 h (100 = growth as untreated, 0 = no growth, -100 = all killed)
# CONDITION_SET: 10 µM
This is part of a sample that, as a whole, favours compounds with a hit. Of some 83,000 tested, about 20% had one in any assay.
Parameter growth: see the listing below.
Write the value in % as a bare number.

Past entries and their recorded results:
>  <COMPOUND>
C[N+](C)(C)C(=O)c1ccccc1

>  <READOUT_UNITS>
%

>  <growth>
102

$$$$
>  <COMPOUND>
Oc1ccccc1O

>  <READOUT_UNITS>
%

>  <growth>
80.2

$$$$
>  <COMPOUND>
N#CC1(Nc2ccc3c4c(cccc24)CC3)CCCCC1

>  <READOUT_UNITS>
%

>  <growth>
107

$$$$
>  <COMPOUND>
CNC(=O)c1ccccc1CC1(O)c2ccccc2Oc2ccccc21

>  <READOUT_UNITS>
%

>  <growth>
93

$$$$

Indicate its recorded growth; the compound in question is COc1cc(CCN=Cc2ccccc2O)c([N+](=O)[O-])cc1OC
99.3

Indicate its recorded growth; the compound in question is O=C(CCNNC(=O)c1ccncc1)NCc1ccccc1
98.1
